- assay summary: Plasma PK after single oral administration in solution, rat
- Assay type: in vivo, Sprague-Dawley Rat
- test context: male, Sprague-Dawley, plasma; rat; single oral 5.0 mg/kg; solution in 5% ethanol/20% propylene glycol/45% PEG 300/30% 0.01 N HCl; mean ± SD, n=3
value type: Tmax

mol	value type	value
CC(C)(C#Cc1ccc(-c2ccc(Cl)c3c(NS(C)(=O)=O)nn(CC(F)(F)F)c23)c([C@H](Cc2cc(F)cc(F)c2)NC(=O)Cn2nc(C(F)(F)F)c3c2C(F)(F)[C@@H]2C[C@H]32)n1)S(C)(=O)=O	Tmax	10 h

* * *

- assay summary: PK after subcutaneous administration of solutions in dogs
- Assay type: in vivo, Beagle dog
- test context: male, beagle, dog, plasma, sc, 12 mg/kg, dog #2; 1008 h; SC 12 mg/kg, 400 mg/mL in 15% water/85% PEG 300

molecule	unit name	concentration at 1008 h
CC(C)(C#Cc1ccc(-c2ccc(Cl)c3c(NS(C)(=O)=O)nn(CC(F)(F)F)c23)c([C@H](Cc2cc(F)cc(F)c2)NC(=O)Cn2nc(C(F)(F)F)c3c2C(F)(F)[C@@H]2C[C@H]32)n1)S(C)(=O)=O [Formula (Ia)]	nM	70.7

* * *

- assay summary: PK after subcutaneous administration of solutions in dogs
- Type: in vivo, Beagle dog
- test context: beagle, dog, plasma, sc, 12 mg/kg, dog; SC 12 mg/kg; 150 mg/mL solution (w/w %: 27.92 water, 58.04 PEG 300, 13.47 Formula (Ia), 1.1 NaOH); mean ± SD, n=3; read-out: C56d

mol	concentration at 56 d [nM]
CC(C)(C#Cc1ccc(-c2ccc(Cl)c3c(NS(C)(=O)=O)nn(CC(F)(F)F)c23)c([C@H](Cc2cc(F)cc(F)c2)NC(=O)Cn2nc(C(F)(F)F)c3c2C(F)(F)[C@@H]2C[C@H]32)n1)S(C)(=O)=O	22.9

* * *

- assay summary: PK after subcutaneous administration of solutions in dogs
- Assay type: in vivo, Beagle dog
- test context: male, beagle, dog, plasma, sc, 12 mg/kg, dog #3; 504 h; SC 12 mg/kg, 400 mg/mL in 15% water/85% PEG 300

mol	concentration at 504 h
CC(C)(C#Cc1ccc(-c2ccc(Cl)c3c(NS(C)(=O)=O)nn(CC(F)(F)F)c23)c([C@H](Cc2cc(F)cc(F)c2)NC(=O)Cn2nc(C(F)(F)F)c3c2C(F)(F)[C@@H]2C[C@H]32)n1)S(C)(=O)=O	82.9 nM

* * *

- assay summary: PK after subcutaneous administration of solutions in rats
- Type: in vivo, Wistar Han rat
- test context: male, Wistar Han, rat, plasma, sc, 50 mg/kg, rat; single SC 50 mg/kg; 300 mg/mL free acid in 85:15 w/w PEG 300:water; mean ± SD, n=3; read-out: AUC0-672h

mol	AUC(0-t) [µM·h]
CC(C)(C#Cc1ccc(-c2ccc(Cl)c3c(NS(C)(=O)=O)nn(CC(F)(F)F)c23)c([C@H](Cc2cc(F)cc(F)c2)NC(=O)Cn2nc(C(F)(F)F)c3c2C(F)(F)[C@@H]2C[C@H]32)n1)S(C)(=O)=O	146

* * *

- assay summary: PK after oral administration in liquid-filled capsules in dogs
- Format: in vivo, beagle dogs
- test context: dog, plasma; fasted, pentagastrin-pretreated male beagle dogs; oral LFC 7.5 mg fixed dose; 20% caprylocaproyl polyoxyl-8 glycerides and 80% glycerol monocaprylocaprate; 100 mg/mL; mean ± SD, n=6

mol	AUC(0-inf), µM·h
CC(C)(C#Cc1ccc(-c2ccc(Cl)c3c(NS(C)(=O)=O)nn(CC(F)(F)F)c23)c([C@H](Cc2cc(F)cc(F)c2)NC(=O)Cn2nc(C(F)(F)F)c3c2C(F)(F)[C@@H]2C[C@H]32)n1)S(C)(=O)=O	1.3
